What cytotoxicity at 10 µM was measured for each of the following?
METHOD NOTES: Toxicity liver stage against HepG2, at 10uM
Format: cell-based
Design: test concentration 10 uM, cell line HepG2-A16-CD81EGFP
TEST SETTINGS: human, HepG2-A16-CD81EGFP cells; read-out: INHIBITION
The number alone won't do; follow it with the unit.

Completed entries (count: 6):
COMPOUND: Cn1c(CN2CCN(CC3CCCO3)CC2)nc2ccccc21 (configuration not stated)
VALUE REPORTED: -25.1%
//
COMPOUND: CCn1cc(CNc2ccc(N(C)CCOC)cn2)cn1
VALUE REPORTED: -8.16%
//
COMPOUND: CCn1cc(NC(=O)NCCN2CCc3ccccc3C2)cn1
VALUE REPORTED: -2.87%
//
COMPOUND: Cn1nc(C(=O)N2CCCCC2c2nc3cc(F)ccc3[nH]2)ccc1=O (configuration not stated)
VALUE REPORTED: -18.2%
//
COMPOUND: CCn1ncc2c1C(COC)CN(Cc1nccs1)C2 (configuration not stated)
VALUE REPORTED: 9.41%
//
COMPOUND: CN(CC(=O)N(C)C(c1cccnc1)c1ccc(F)c(F)c1)C1CC1 (configuration not stated)
VALUE REPORTED: -3.57%

# return cytotoxicity at 10 µM for each item in the list
1. CC(C)CCN1CC2(CCCN(C(=O)NCc3cccs3)C2)CCC1=O (configuration not stated)
2. CC(C)c1cc(Br)ccc1NC(=O)NCC(O)CO (configuration not stated)

Out:
-11.9%
9.45%

# return cytotoxicity at 10 µM for each item in the list
1. CC(C)N1c2sc(-c3ccsc3)nc2CC1C(=O)NC1CCCC1 (configuration not stated)
2. CCn1nc(C)c(CN(Cc2ccccn2)Cc2ccccc2Cl)c1C
3. CCCC(=O)N1CCC2(CC1)OCCO2
4. COc1ccc(OCCN2CCC(c3ccnn3CCO)CC2)cc1

Out:
["9.1%", "5.17%", "5.22%", "-6.9%"]

meta.source: ChEMBL document CHEMBL4513216
